- assay.remarks: total protein half-life in vivo (active degradation + dilution); higher = more stable protein
- condition: wild type E. coli NCM3722; growth: C-lim chemostat; doubling time 6 h
Please respond with reported total protein half-life in vivo for every item in the list.
# number only, unit h dropped from output

### Prompt Note down total protein half-life in vivo recorded for MAMYQNMLVVIDPNQDDQPALRRAVYLHQRIGGKIKAFLPIYDFSYEMTTLLSPDERTAMRQGVISQRTAWIHEQAKYYLNAGVPIEIKVVWHNRPFEAIIQEVISGGHDLVLKMAHQHDRLEAVIFTPTDWHLLRKCPSPVWMVKDQPWPEGGKALVAVNLASEEPYHNALNEKLVKETIELAEQVNHTEVHLVGAYPVTPINIAIELPEFDPSVYNDAIRGQHLLAMKALRQKFGINENMTHVEKGLPEEVIPDLAEHLQAGIVVLGTVGRTGISAAFLGNTAEQVIDHLRCDLLVIKPDQYQTPVELDDEEDD [P0AAC0]
### Response 5.6

### Prompt Provide measured total protein half-life in vivo value, entry: `MTTYDRNRNAITTGSRVMVSGTGHTGKILSIDTEGLTAEQIRRGKTVVVEGCEEKLAPLDLIRLGMN`
### Response 4.16

### Prompt Supply measured total protein half-life in vivo of `MKKIAITCALLSSLVASSVWADAASDLKSRLDKVSSFHASFTQKVTDGSGAAVQEGQGDLWVKRPNLFNWHMTQPDESILVSDGKTLWFYNPFVEQATATWLKDATGNTPFMLIARNQSSDWQQYNIKQNGDDFVLTPKASNGNLKQFTINVGRDGTIHQFSAVEQDDQRSSYQLKSQQNGAVDAAKFTFTPPQGVTVDDQRK` in your reply.
### Response 5.68

### Prompt Please give the documented total protein half-life in vivo of MLKKFRGMFSNDLSIDLGTANTLIYVKGQGIVLNEPSVVAIRQDRAGSPKSVAAVGHDAKQMLGRTPGNIAAIRPMKDGVIADFFVTEKMLQHFIKQVHSNSFMRPSPRVLVCVPVGATQVERRAIRESAQGAGAREVFLIEEPMAAAIGAGLPVSEATGSMVVDIGGGTTEVAVISLNGVVYSSSVRIGGDRFDEAIINYVRRNYGSLIGEATAERIKHEIGSAYPGDEVREIEVRGRNLAEGVPRGFTLNSNEILEALQEPLTGIVSAVMVALEQCPPELASDISERGMVLTGGGALLRNLDRLLMEETGIPVVVAEDPLTCVARGGGKALEMIDMHGGDLFSEE [P0A9X4]
### Response 6.72

### Prompt Determine from records and report total protein half-life in vivo for MAGINLNKKLWRIPQQGMVRGVCAGIANYFDVPVKLVRILVVLSIFFGLALFTLVAYIILSFALDPMPDNMAFGEQLPSSSELLDEVDRELAASETRLREMERYVTSDTFTLRSRFRQL [P0AFN2]
### Response 3.81

### Prompt Please look at this sequence and report its total protein half-life in vivo: `MSKKIVLALGGNALGDDLAGQMKAVKITSQAIVDLIAQGHEVIVTHGNGPQVGMINQAFEAAAKTEAHSPMLPMSVCVALSQGYIGYDLQNALREELLSRGINKPVATLVTQVEVDANDPAFLNPTKPIGSFFTEQEAEQLTKQGYTLKEDAGRGYRRVVASPKPVDIIEKETVKALVDAGQVVITVGGGGIPVIREGNHLRGASAVIDKDWASARLAEMIDADMLIILTAVEKVAINFGKENEQWLDRLSLSDAERFIEEGHFAKGSMLPKVEAAASFARSRAGREALITVLSKAKEGIEGKTGTVICQ`
### Response 3.92

---

Exercise: for every item that follows, state its recorded total protein half-life in vivo.
- assay.remarks: total protein half-life in vivo (active degradation + dilution); higher = more stable protein
- condition: wild type E. coli NCM3722; growth: C-lim chemostat; doubling time 3 h
Output spec: scalar in h, unitless text.

### Prompt Report total protein half-life in vivo for MKHTVEVMIPEAEIKARIAELGRQITERYKDSGSDMVLVGLLRGSFMFMADLCREVQVSHEVDFMTASSYGSGMSTTRDVKILKDLDEDIRGKDVLIVEDIIDSGNTLSKVREILSLREPKSLAICTLLDKPSRREVNVPVEFIGFSIPDEFVVGYGIDYAQRYRHLPYIGKVILLDE [P0A9M2]
### Response 2.88

### Prompt Note down total protein half-life in vivo recorded for MLKRFFITGTDTSVGKTVVSRALLQALASQGKTVAGYKPVAKGSKETPEGLRNKDALVLQSVSTIELPYEAVNPIALSEEESSVAHSCPINYTLISNGLANLTEKVDHVVVEGTGGWRSLMNDLRPLSEWVVQEQLPVLMVVGIQEGCINHALLTAQAIANDGLPLIGWVANRINPGLAHYAEIIDVLGKKLPAPLIGELPYLPRAEQRELGQYIRLAMLRSVLAVDRVTV [P0A6E9]
### Response 2.11

### Prompt Quick one: give measured total protein half-life in vivo for `MSDNAQLTGLCDRFRGFYPVVIDVETAGFNAKTDALLEIAAITLKMDEQGWLMPDTTLHFHVEPFVGANLQPEALAFNGIDPNDPDRGAVSEYEALHEIFKVVRKGIKASGCNRAIMVAHNANFDHSFMMAAAERASLKRNPFHPFATFDTAALAGLALGQTVLSKACQTAGMDFDSTQAHSALYDTERTAVLFCEIVNRWKRLGGWPLSAAEEV`
### Response 2.54

---

- assay.remarks: total protein half-life in vivo (active degradation + dilution); higher = more stable protein
- condition: wild type E. coli NCM3722; growth: P-lim chemostat; doubling time 6 h
observation.type: total protein half-life in vivo (h)
The answer is to be given in h; state only the numeric part.

### Prompt Give the reported total protein half-life in vivo for this sequence. `MHQVVCATTNPAKIQAILQAFHEIFGEGSCHIASVAVESGVPEQPFGSEETRAGARNRVANARRLLPEADFWVAIEAGIDGDSTFSWVVIENASQRGEARSATLPLPAVILEKVREGEALGPVMSRYTGIDEIGRKEGAIGVFTAGKLTRASVYHQAVILALSPFHNAVY`
### Response 5.38

### Prompt Please list total protein half-life in vivo recorded for the sequence `MFSALRHRTAALALGVCFILPVHASSPKPGDFANTQARHIATFFPGRMTGTPAEMLSADYIRQQFQQMGYRSDIRTFNSRYIYTARDNRKSWHNVTGSTVIAAHEGKAPQQIIIMAHLDTYAPLSDADADANLGGLTLQGMDDNAAGLGVMLELAERLKNTPTEYGIRFVATSGEEEGKLGAENLLKRMSDTEKKNTLLVINLDNLIVGDKLYFNSGVKTPEAVRKLTRDRALAIARSHGIAATTNPGLNKNYPKGTGCCNDAEIFDKAGIAVLSVEATNWNLGNKDGYQQRAKTPAFPAGNSWHDVRLDNHQHIDKALPGRIERRCRDVMRIMLPLVKELAKAS`
### Response 4

### Prompt # return recorded total protein half-life in vivo for entry `MQKDALNNVHITDEQVLMTPEQLKAAFPLSLQQEAQIADSRKSISDIIAGRDPRLLVVCGPCSIHDPETALEYARRFKALAAEVSDSLYLVMRVYFEKPRTTVGWKGLINDPHMDGSFDVEAGLQIARKLLLELVNMGLPLATEALDPNSPQYLGDLFSWSAIGARTTESQTHREMASGLSMPVGFKNGTDGSLATAINAMRAAAQPHRFVGINQAGQVALLQTQGNPDGHVILRGGKAPNYSPADVAQCEKEMEQAGLRPSLMVDCSHGNSNKDYRRQPAVAESVVAQIKDGNRSIIGLMIESNIHEGNQSSEQPRSEMKYGVSVTDACISWEMTDALLREIHQDLNGQLTARVA`
### Response 1.57

---

- assay.remarks: total protein half-life in vivo (active degradation + dilution); higher = more stable protein
- condition: wild type E. coli NCM3722; growth: C-lim chemostat; doubling time 12 h
Task for the reader: assign each of the following sequences its reported total protein half-life in vivo.
Respond with the bare value in h.

### Prompt In one line, give reported total protein half-life in vivo of the entry MIVTIVGWLVLFVFLPNLMIIGTSFLTRDDASFVKMVFTLDNYTRLLDPLYFEVLLHSLNMALIATLACLVLGYPFAWFLAKLPHKVRPLLLFLLIVPFWTNSLIRIYGLKIFLSTKGYLNEFLLWLGVIDTPIRIMFTPSAVIIGLVYILLPFMVMPLYSSIEKLDKPLLEAARDLGASKLQTFIRIIIPLTMPGIIAGCLLVMLPAMGLFYVSDLMGGAKNLLIGNVIKVQFLNIRDWPFGAATSITLTIVMGLMLLVYWRASRLLNKKVELE [P0AFK4] .
### Response 9.29

### Prompt Quote total protein half-life in vivo reported for `MKALARFGKAFGGYKMIDVPQPMCGPEDVVIEIKAAAICGADMKHYNVDSGSDEFNSIRGHEFAGCIAQVGEKVKDWKVGQRVVSDNSGHVCGVCPACEQGDFLCCTEKVNLGLDNNTWGGGFSKYCLVPGEILKIHRHALWEIPDGVDYEDAAVLDPICNAYKSIAQQSKFLPGQDVVVIGTGPLGLFSVQMARIMGAVNIVVVGLQEDVAVRFPVAKELGATAVVNGSTEDVVARCQQICGKDNLGLVIECSGANIALKQAIEMLRPNGEVVRVGMGFKPLDFSINDITAWNKSIIGHMAYDSTSWRNAIRLLASGAIKVKPMITHRIGLSQWREGFDAMVDKTAIKVIMTYDFDE` please.
### Response 3.7

### Prompt Given the sequence `MKKIAITCALLSSLVASSVWADAASDLKSRLDKVSSFHASFTQKVTDGSGAAVQEGQGDLWVKRPNLFNWHMTQPDESILVSDGKTLWFYNPFVEQATATWLKDATGNTPFMLIARNQSSDWQQYNIKQNGDDFVLTPKASNGNLKQFTINVGRDGTIHQFSAVEQDDQRSSYQLKSQQNGAVDAAKFTFTPPQGVTVDDQRK` , write its reported total protein half-life in vivo.
### Response 9.08

### Prompt State, in one line, measured total protein half-life in vivo of MDTELLKTFLEVSRTRHFGRAAESLYLTQSAVSFRIRQLENQLGVNLFTRHRNNIRLTAAGEKLLPYAETLMSTWQAARKEVAHTSRHNEFSIGASASLWECMLNQWLGRLYQNQDAHTGLQFEARIAQRQSLVKQLHERQLDLLITTEAPKMDEFSSQLLGYFTLALYTSAPSKLKGDLNYLRLEWGPDFQQHEAGLIGADEVPILTTSSAELAQQQIAMLNGCTWLPVSWARKKGGLHTVVDSTTLSRPLYAIWLQNSDKNALIRDLLKINVLDEVY [P0A8R9]
### Response 9.53

### Prompt Could you please provide reported total protein half-life in vivo for MNKVVLLCRPGFEKECAAEITDKAGQREIFGFARVKENAGYVIYECYQPDDGDKLIRELPFSSLIFARQWFVVGELLQHLPPEDRITPIVGMLQGVVEKGGELRVEVADTNESKELLKFCRKFTVPLRAALRDAGVLANYETPKRPVVHVFFIAPGCCYTGYSYSNNNSPFYMGIPRLKFPADAPSRSTLKLEEAFHVFIPADEWDERLANGMWAVDLGACPGGWTYQLVKRNMWVYSVDNGPMAQSLMDTGQVTWLREDGFKFRPTRSNISWMVCDMVEKPAKVAALMAQWLVNGWCRETIFNLKLPMKKRYEEVSHNLAYIQAQLDEHGINAQIQARQLYHDREEVTVHVRRIWAAVGGRRDER [P0ADR6] ? Thanks!
### Response 10.2
